Hey, just so you know, these numbers are from ChEMBL document CHEMBL4382217.

assay_system: Epidermal growth factor receptor (Homo sapiens, UniProt P00533, L858R/T790M)
Sequence (P00533 25-1210 T790M/L858R limits assumed): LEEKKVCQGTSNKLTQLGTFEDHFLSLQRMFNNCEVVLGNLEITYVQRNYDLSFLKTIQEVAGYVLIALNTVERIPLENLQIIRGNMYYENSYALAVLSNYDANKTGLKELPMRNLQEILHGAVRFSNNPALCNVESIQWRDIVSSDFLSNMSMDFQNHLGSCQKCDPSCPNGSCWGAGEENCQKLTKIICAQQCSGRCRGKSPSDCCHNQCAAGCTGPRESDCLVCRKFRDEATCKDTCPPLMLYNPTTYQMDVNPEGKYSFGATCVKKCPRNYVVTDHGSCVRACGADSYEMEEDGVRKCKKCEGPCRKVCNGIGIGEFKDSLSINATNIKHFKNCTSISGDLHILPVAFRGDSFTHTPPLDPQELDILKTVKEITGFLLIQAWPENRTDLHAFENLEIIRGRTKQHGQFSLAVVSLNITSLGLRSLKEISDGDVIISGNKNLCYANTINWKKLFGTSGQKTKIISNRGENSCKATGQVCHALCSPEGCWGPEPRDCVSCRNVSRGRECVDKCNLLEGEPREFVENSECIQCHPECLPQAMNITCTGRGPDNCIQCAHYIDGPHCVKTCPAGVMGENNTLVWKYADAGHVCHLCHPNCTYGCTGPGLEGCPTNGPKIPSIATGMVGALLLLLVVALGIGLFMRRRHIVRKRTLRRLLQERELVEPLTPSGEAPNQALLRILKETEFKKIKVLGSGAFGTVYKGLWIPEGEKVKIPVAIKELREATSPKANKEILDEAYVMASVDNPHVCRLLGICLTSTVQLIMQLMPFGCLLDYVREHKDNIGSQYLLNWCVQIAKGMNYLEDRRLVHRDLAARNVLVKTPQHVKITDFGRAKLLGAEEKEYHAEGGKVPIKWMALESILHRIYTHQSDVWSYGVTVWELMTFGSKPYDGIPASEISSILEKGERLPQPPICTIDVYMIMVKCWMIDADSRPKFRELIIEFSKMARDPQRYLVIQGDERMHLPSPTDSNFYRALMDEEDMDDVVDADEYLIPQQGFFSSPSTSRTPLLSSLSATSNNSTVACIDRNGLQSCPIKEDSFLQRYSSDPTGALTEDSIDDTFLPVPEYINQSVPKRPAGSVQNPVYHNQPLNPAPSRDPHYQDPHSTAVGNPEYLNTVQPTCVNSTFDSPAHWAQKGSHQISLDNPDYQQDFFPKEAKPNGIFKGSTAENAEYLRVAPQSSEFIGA
experiment_description: Inhibition of recombinant human N-terminal GST-tagged EGFR T790M/L858R double mutant (696-end residues) by fluorescence assay
pIC50: −log10 of the molar value.
Documented pIC50 across a set of molecules
endpoint: pIC50

chem_smiles=C=CC(=O)Nc1cc(Nc2nccc(-c3cn(C)c4cccnc34)n2)c(OC)cc1N(C)CCN(C)C endpoint=pIC50 experimental_value=5.68
chem_smiles=C=CC(=O)Nc1cc(Nc2nccc(-c3cn(C)c4cccnc34)n2)c(OC)cc1NCCN(C)C endpoint=pIC50 experimental_value=4.82
chem_smiles=C=CC(=O)Nc1cc(Nc2nccc(-c3cn(C)c4cccnc34)n2)c(OC)cc1N(C)CCNC endpoint=pIC50 experimental_value=5.18

----------
experiment_description: Antiproliferative activity against human A431 cells harboring WT EGFR after 72 hrs by MTS assay
Assay type: cell-based, A-431
assay_context: human, A431 cells harboring WT EGFR
endpoint: GI50 at 72 h (nM)

chem_smiles=C=CC(=O)Nc1cc(Nc2nccc(-c3noc4ccccc34)n2)c(OC(F)F)cc1N1CCN(C)CC1 censoring_operator== experimental_value=1720
chem_smiles=C=CC(=O)Nc1cc(Nc2nccc(-c3cn(C)c4cccnc34)n2)c(OC)cc1N(C)CCN(C)C censoring_operator== experimental_value=500
chem_smiles=C=CC(=O)Nc1cc(Nc2nccc(-c3noc4ccccc34)n2)c(OC)cc1N(C)CCN(C)C censoring_operator== experimental_value=110
chem_smiles=C=CC(=O)Nc1cc(Nc2nccc(-c3cn(C)c4cccnc34)n2)c(OC)cc1N1CCN(C)CC1 censoring_operator== experimental_value=1560
chem_smiles=C=CC(=O)Nc1cc(Nc2nccc(-c3nn(C)c4ccsc34)n2)c(OC)cc1N(C)CCN(C)C censoring_operator== experimental_value=209
chem_smiles=C=CC(=O)Nc1cc(Nc2nccc(-c3noc4ccccc34)n2)c(OC(F)F)cc1N(C)CCN(C)C censoring_operator== experimental_value=89.1
chem_smiles=C=CC(=O)Nc1cc(Nc2nccc(-c3noc4ccccc34)n2)c(OC)cc1N1CCC[C@H]1CN(C)C censoring_operator=> experimental_value=10000
